Hi there, I'd appreciate the recorded pEC50 for every entry that follows.
# PROTOCOL: Antiproliferative activity against mouse B16-BL6 cells after 72 hrs by MTT assay
# Format: functional, cell-based
# EXPERIMENTAL PARAMETERS: B16-BL6, 72 h
Structures can show the parent of a compound that is named as a salt.
# reply with the number alone; pEC50 is -log10 of concentration in mol/L

Which pEC50 is reported for this compound? O=C(/C=C/c1ccc(O)c(O)c1)OCc1ccccc1 [BENZYL CAFFEATE] 5.01

Looking for the measured pEC50 of COc1cccc2c1C(=O)c1c(O)c3c(c(O)c1C2=O)C[C@@](O)(C(=O)CO)C[C@@H]3O[C@H]1C[C@H](N)[C@H](O)[C@H](C)O1 [DOXORUBICIN HYDROCHLORIDE] , can you help? 6.96

If you can, please state the reported pEC50 value of `O=c1cc(-c2ccccc2)oc2cc(O)cc(O)c12` . 4.13
